Entry source: ChEMBL document CHEMBL5223141

system: L02; assay: Cytotoxicity against human L02 cells at 100 uM by MTT assay; assay type: toxicity, cell-based; conditions: l02, 100 µM
attribute_measured: Activity

Below, each entry is followed by its recorded Activity result.
O=C(Nc1sc2c(c1C(=O)NCc1ccccn1)CCC2)c1cccnc1 ... Non-Toxic
O=C(Nc1sc2c(c1C(=O)NCc1ccncc1)CCC2)c1cccnc1 ... Non-Toxic
COc1cc(CNC(=O)c2c(NC(=O)c3cccnc3)sc3c2CCC3)ccc1O ... Non-Toxic
O=C(Nc1sc2c(c1C(=O)NCc1ccccn1)CCCC2)c1cccnc1 ... Non-Toxic
C[C@H]1O[C@H](O[C@H]2[C@H](O)[C@@H](O)[C@@H](O[C@H]3[C@H](O)[C@@H](O)C(O)O[C@@H]3CO)O[C@@H]2CO)[C@H](O)[C@@H](O)[C@@H]1N[C@H]1C=C(CO)[C@@H](O)[C@H](O)[C@H]1O (stereo not given in full) ... Non-Toxic
O=C(Nc1sc2c(c1C(=O)NCc1cccnc1)CCCC2)c1cccnc1 ... Non-Toxic
O=C(Nc1sc2c(c1C(=O)NCc1ccccc1)CCCC2)c1cccnc1 ... Non-Toxic
COc1cc(CNC(=O)c2c(NC(=O)c3cccnc3)sc3c2CCCC3)ccc1O ... Non-Toxic

# query: Activity | item O=C(Nc1sc2c(c1C(=O)NCc1ccccc1)CCC2)c1cccnc1 | system: L02 Non-Toxic

What is its Activity for L02? Entry: COC(=O)c1ccc(CNC(=O)c2c(NC(=O)c3cccnc3)sc3c2CCCC3)cc1 Non-Toxic

What Activity appears in the records for this molecule with L02? COc1ccc(CNC(=O)c2c(NC(=O)c3cccnc3)sc3c2CCCC3)cc1 Non-Toxic
